# log10 of TGI values compiled below
System: COLO 205 colon
Assay: NCI tumour cell line growth inhibition, 48 h
Scale type: logarithmic (base 10). Underlying TGI unit: µM.

{"smiles.str": "O=c1cc(NNc2ccc(F)cc2)[nH]c(=O)[nH]1", "log10 of TGI": 1.49}

Please turn your attention to the following entry.
Input line: Assign log10 of TGI to the following record: `COc1ccc(NC(=O)CSc2nnc(-c3ccc(N=Cc4ccc(Cl)cc4)cc3)o2)cc1`
Output line: 1.65

====

Tested on: OVCAR-4 ovarian
Experiment: NCI tumour cell line growth inhibition, 48 h
// reported TGI per item
Please give a number only; it is taken to be in µM.

{"molecule": "COc1ccc(-c2cc(-c3ccccc3)nc(N)c2-c2ccc3ccccc3c2)cc1", "test.system": "OVCAR-4 ovarian", "TGI [µM]": 2.42}
{"molecule": "Oc1c(CNCCCN2CCCC2)cc(Cl)c2cccnc12", "test.system": "OVCAR-4 ovarian", "TGI [µM]": 16.9}
{"molecule": "COc1ccc2ccnc(Cc3ccc(OCc4ccccc4)c(OC)c3)c2c1", "test.system": "OVCAR-4 ovarian", "TGI [µM]": 34}
{"molecule": "Oc1ccc(-c2nc3ccc(F)cc3s2)cc1", "test.system": "OVCAR-4 ovarian", "TGI [µM]": 58.1}

Input line: Tell me measured TGI for CC(=O)O[C@@H]1C(C2CCCCC2)C=[N+]([O-])O[C@@H]1OC1CCCC1(c1ccccc1)c1ccccc1 (some centres not stated) please.
Output line: 21.1

Input line: Indicate the recorded TGI value for this molecule: `CCOC(=O)c1cnc2c(C)cc(C)cc2c1NCCCN(C)C`
Output line: 14

Input line: Fill in reported TGI for this entry: `O=C(C(Cl)Cl)N(O)c1ccccc1OCc1ccccc1`
Output line: 78.9

Input line: Specify TGI for `CCOC(=O)/C=C(\C)Sc1cc(O)c2ccccc2c1O` and stop.
Output line: 32

Input line: Answer with the recorded TGI of CCn1cc(C2NC(=O)c3ccccc3N2)c2cccc(C)c21 (configuration not stated) only.
Output line: 13.1
